targetOfAssay: T1, HLA-A2 molecule on T2 cells (human)
T1 construct: also called HLA-A2.1; HLA-A2 molecules
assayInfo: T2 binding assay (flow cytometry, BB7.2 anti-HLA-A2 stain of peptide-loaded T2 cells)
quantity: FI0.5 (µM)

{"binder": "GLTPLLLGV [POTE 272-280]", "quantityUnit": "µM", "numericReadout": 0.9}

1. KLMAKALLL [POTE 252-260]
2. KILEEIESV [POTE 553-561]
3. LLLEQNVDV [POTE 323-331]
List items by FI0.5 in falling order. Answer by writing out the labels in the requested order. 2, 1, 3
(2: 5.6 µM, 1: 1.6 µM, 3: 0.8 µM)

Attribution: patent US20130039936A1
